Source: patent US9624170B2

# EXPERIMENTAL SYSTEM: human MAGL (His-hMAGL) (Homo sapiens, UniProt Q99685)
# Construct: made in house; host or cells: Escherichia coli BL21(DE3)
# Sequence (Q99685 1-303): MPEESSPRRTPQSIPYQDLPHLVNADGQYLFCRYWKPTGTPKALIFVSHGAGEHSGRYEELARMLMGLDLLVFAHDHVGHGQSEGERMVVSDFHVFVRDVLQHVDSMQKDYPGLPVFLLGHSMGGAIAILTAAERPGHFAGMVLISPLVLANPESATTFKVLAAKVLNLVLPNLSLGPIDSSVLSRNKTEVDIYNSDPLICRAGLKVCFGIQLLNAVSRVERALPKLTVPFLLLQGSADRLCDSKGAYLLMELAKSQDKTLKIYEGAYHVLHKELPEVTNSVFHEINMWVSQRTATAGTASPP
# PROTOCOL DESCRIPTION: Measurement of MAGL inhibitory activity by mass spectrometry
# Assay type: biochemical
# COND: 10 μM test compound; substrate 2-arachidonylglycerol, arachidonic acid by RapidFire-mass spectrometry
READOUT KIND: inhibition at 10 µM (%)
Kindly answer with a numeric value in %, unit omitted.

O=C(c1nccs1)N1CCN(C2CC(=O)N(c3cccc(Cc4ccccc4)c3)C2)CC1 (stereo not shown) | 102
O=C(c1nccs1)N1CCN(C2CC(=O)N(c3ccccc3)C2)CC1 (stereo not shown) | 91
Cc1ccc(-c2cccc(N3CC(N4CCN(C(=O)c5nccs5)CC4)CC3=O)c2)cc1 (stereo not shown) | 102
O=C(c1nccs1)N1CCN(C2CC(=O)N(c3ccc4c(ccn4-c4cc(C(F)(F)F)ccn4)c3)C2)CC1 (stereo not shown) | 97
O=C(c1nccs1)N1CCN(C2CC(=O)N(c3cccc(-c4ccsc4)c3)C2)CC1 (stereo not shown) | 99
Cc1ccc(-c2cccc(N3CC(N4CCN(C(=O)c5nccs5)CC4)CC3=O)c2)nc1 (stereo not shown) | 96
O=C(c1nccs1)N1CCN(C2CC(=O)N(c3cccc(-c4ccoc4)c3)C2)CC1 (stereo not shown) | 99
CC(C)n1nccc1-c1cccc(N2CC(N3CCN(C(=O)c4nccs4)CC3)CC2=O)c1 (stereo not shown) | 99
O=C(c1nccs1)N1CCN(C2CC(=O)N(c3ccc4c(cnn4Cc4ccc(F)cc4)c3)C2)CC1 (stereo not shown) | 98
CNS(=O)(=O)c1ccc(-c2cccc(N3CC(N4CCN(C(=O)c5nccs5)CC4)CC3=O)c2)cc1 (stereo not shown) | 6

Problem: I am curious: what inhibition at 10 µM value has been reported for O=C(c1nccs1)N1CCN([C@@H]2CC(=O)N(c3ccc4c(ccn4-c4ncc(C(F)(F)F)cn4)c3)C2)CC1 ?
Solution: 97

Problem: I am curious: what inhibition at 10 µM value has been reported for CC(=O)Nc1ccc(-c2cccc(N3CC(N4CCN(C(=O)c5nccs5)CC4)CC3=O)c2)cc1 (stereo not shown) ?
Solution: 97

Problem: I am curious: what inhibition at 10 µM value has been reported for O=C(c1nccs1)N1CCN(C2CC(=O)N(c3ccc(F)c(Br)c3)C2)CC1 (stereo not shown) ?
Solution: 98
